biological target: mMC4R (Mus musculus); assay: cAMP based functional bioassay (CRE/β-galactosidase reporter), agonist activity at mMC4R; details: reported where receptor not activated to full activity
quantityKind: mMC4R Activity @ 10 μM (class)

In the examples that follow, each entry is paired with its recorded mMC4R Activity @ 10 μM (class).
compound	mMC4R Activity @ 10 μM (class)
CC(C)CCCN1C(=N)N([C@H](CC2CCCCC2)CN2CCC[C@H]2CN2C(=N)NC[C@H]2CC(C)C)C[C@H]1[C@H](C)O [TPI 2509-6]	A (A: <50%)
CC(C)[C@@H]1CNC(=N)N1C[C@@H]1CCCN1C[C@@H](CC1CCCCC1)N1C[C@@H]([C@@H](C)O)N(CC2CCC(C(C)(C)C)CC2)C1=N (stereo partly drawn) [TPI 2509-23]	A (A: <50%)
CC[C@H](C)[C@@H]1CNC(=N)N1C[C@@H]1CCCN1C[C@@H](Cc1ccccc1)N1CC(Cc2ccc(O)cc2)N(CC2CCC(C(C)(C)C)CC2)C1=N (stereo partly drawn) [TPI 2509-40]	A (A: <50%)
CCC[C@@H]1CN([C@H](CC2CCCCC2)CN2CCC[C@H]2CN2C(=N)NC[C@H]2C(C)C)C(=N)N1CCCC(C)C [TPI 2509-27]	A (A: <50%)
CC(C)[C@@H]1CNC(=N)N1C[C@@H]1CCCN1C[C@@H](CC1CCCCC1)N1C[C@@H](C(C)C)N(CC2CCC(C(C)(C)C)CC2)C1=N (stereo partly drawn) [TPI 2509-29]	A (A: <50%)
CC(C)C[C@@H]1CNC(=N)N1C[C@@H]1CCCN1C[C@@H](Cc1ccccc1)N1C[C@@H]([C@@H](C)O)N(CC23CC4CC(CC(C4)C2)C3)C1=N [TPI 2509-13]	B (B: >51%)
CC(C)[C@@H]1CNC(=N)N1C[C@@H]1CCCN1C[C@@H](Cc1ccccc1)N1C[C@@H]([C@@H](C)O)N(CC2CCC(C(C)(C)C)CC2)C1=N (stereo partly drawn) [TPI 2509-32]	A (A: <50%)
CC(C)CCCN1C(=N)N([C@H](CC2CCCCC2)CN2CCC[C@H]2CN2C(=N)NC[C@H]2CC(C)C)C[C@H]1C(C)C [TPI 2509-12]	B (B: >51%)

Now look at this entry.
Q) Form field: mMC4R Activity @ 10 μM (class) recorded for CC(C)C[C@@H]1CNC(=N)N1C[C@@H]1CCCN1C[C@@H](Cc1ccccc1)N1C[C@@H]([C@@H](C)O)N(CC2CCC(C(C)(C)C)CC2)C1=N (stereo partly drawn) [TPI 2509-14] with mMC4R (Mus musculus) (enter value)
A) A (A: <50%)

---

target: mMC3R (Mus musculus, UniProt P33033); assay: cAMP based functional bioassay (CRE/β-galactosidase reporter), agonist activity at mMC3R
Sequence (P33033 whole entry): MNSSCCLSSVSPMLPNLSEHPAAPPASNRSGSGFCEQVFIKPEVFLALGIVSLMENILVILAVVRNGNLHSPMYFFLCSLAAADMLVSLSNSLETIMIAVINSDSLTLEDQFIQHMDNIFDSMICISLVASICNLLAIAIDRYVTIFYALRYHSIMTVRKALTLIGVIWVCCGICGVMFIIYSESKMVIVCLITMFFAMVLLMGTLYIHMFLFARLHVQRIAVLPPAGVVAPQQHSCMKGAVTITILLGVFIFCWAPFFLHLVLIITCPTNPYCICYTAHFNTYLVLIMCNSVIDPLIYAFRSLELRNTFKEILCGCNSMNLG
Mark Y for EC50 under 400 nM, N if at or over.

molecule	assignedCategory
CC(C)CCCN1C(=N)N([C@H](CC2CCCCC2)CN2CCC[C@H]2CN2C(=N)NC[C@H]2C(C)C)C[C@H]1[C@@H](C)O	N
CC(C)[C@@H]1CNC(=N)N1C[C@@H]1CCCN1C[C@@H](Cc1ccccc1)N1C[C@@H](C(C)C)N(CC23CC4CC(CC(C4)C2)C3)C1=N	N
CC(C)C[C@@H]1CNC(=N)N1C[C@@H]1CCCN1C[C@@H](Cc1ccccc1)N1C[C@@H]([C@@H](C)O)N(CC23CC4CC(CC(C4)C2)C3)C1=N	Y
CC(C)C[C@@H]1CNC(=N)N1C[C@@H]1CCCN1C[C@@H](Cc1ccccc1)N1C[C@@H]([C@@H](C)O)N(CC2CCC(C(C)(C)C)CC2)C1=N (stereo partly drawn)	Y
CC(C)[C@@H]1CNC(=N)N1C[C@@H]1CCCN1C[C@@H](CC1CCCCC1)N1C[C@@H]([C@@H](C)O)N(CC23CC4CC(CC(C4)C2)C3)C1=N	Y

Q) Bench note: check whether CCC[C@@H]1CN([C@H](Cc2ccccc2)CN2CCC[C@H]2CN2C(=N)NC[C@H]2C(C)C)C(=N)N1CC1CCC(C(C)(C)C)CC1 (stereo partly drawn) shows EC50 below 400 nM
A) N

---

target: mMC4R (Mus musculus); experiment: cAMP based functional bioassay (CRE/β-galactosidase reporter), agonist activity at mMC4R; settings: reported where receptor not activated to full activity
quantityKind: mMC4R Activity @ 10 μM (class)

Use the examples below as a reference point.
compound	mMC4R Activity @ 10 μM (class)
CCC[C@@H]1CN([C@H](CC2CCCCC2)CN2CCC[C@H]2CN2C(=N)NC[C@H]2C(C)C)C(=N)N1CC1CCC(C(C)(C)C)CC1 (stereo partly drawn) [TPI 2509-26]	A (A: <50%)
CCC[C@@H]1CN([C@H](Cc2ccccc2)CN2CCC[C@H]2CN2C(=N)NC[C@H]2C(C)C)C(=N)N1CC1CCC(C(C)(C)C)CC1 (stereo partly drawn) [TPI 2509-35]	A (A: <50%)
CCC[C@@H]1CN([C@H](CC2CCCCC2)CN2CCC[C@H]2CN2C(=N)NC[C@H]2CC(C)C)C(=N)N1CC1CCC(C(C)(C)C)CC1 (stereo partly drawn) [TPI 2509-8]	B (B: >51%)
CCC[C@@H]1CN([C@H](Cc2ccccc2)CN2CCC[C@H]2CN2C(=N)NC[C@H]2C(C)C)C(=N)N1CCCC(C)C [TPI 2509-36]	A (A: <50%)
CCC[C@@H]1CN([C@H](Cc2ccccc2)CN2CCC[C@H]2CN2C(=N)NC[C@H]2CC(C)C)C(=N)N1CCCC(C)C [TPI 2509-18]	B (B: >51%)

Now for a further compound.
Q) Record request: mMC4R Activity @ 10 μM (class) value, item CC(C)[C@@H]1CNC(=N)N1C[C@@H]1CCCN1C[C@@H](CC1CCCCC1)N1C[C@@H](C(C)C)N(CC23CC4CC(CC(C4)C2)C3)C1=N [TPI 2509-28]
A) A (A: <50%)

---

target: mMC1R (Mus musculus); assay: cAMP based functional bioassay (CRE/β-galactosidase reporter), agonist activity at mMC1R
Sequence (Q01727 whole entry): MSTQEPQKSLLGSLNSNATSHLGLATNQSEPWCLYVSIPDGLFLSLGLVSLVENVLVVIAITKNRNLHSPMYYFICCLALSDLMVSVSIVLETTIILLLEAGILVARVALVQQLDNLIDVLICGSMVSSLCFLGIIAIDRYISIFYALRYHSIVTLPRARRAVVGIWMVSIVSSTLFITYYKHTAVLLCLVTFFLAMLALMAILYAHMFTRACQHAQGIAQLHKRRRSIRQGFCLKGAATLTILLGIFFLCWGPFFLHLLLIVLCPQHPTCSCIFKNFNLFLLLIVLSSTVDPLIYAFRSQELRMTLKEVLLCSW
pEC50: −log10 of the molar value.
Classify as follows. Reported pEC50 greater than or equal to 6: satisfied. Reported pEC50 below: not satisfied.

compound	assignedCategory
CCC[C@@H]1CN([C@H](Cc2ccccc2)CN2CCC[C@H]2CN2C(=N)NC[C@H]2C(C)C)C(=N)N1CC1CCC(C(C)(C)C)CC1 (stereo partly drawn)	not satisfied
CC(C)[C@@H]1CNC(=N)N1C[C@@H]1CCCN1C[C@@H](CC1CCCCC1)N1C[C@@H]([C@@H](C)O)N(CC2CCC(C(C)(C)C)CC2)C1=N (stereo partly drawn)	satisfied
CC(C)[C@@H]1CNC(=N)N1C[C@@H]1CCCN1C[C@@H](Cc1ccccc1)N1C[C@@H]([C@@H](C)O)N(CC23CC4CC(CC(C4)C2)C3)C1=N	satisfied
CC(C)CCCN1C(=N)N([C@H](CC2CCCCC2)CN2CCC[C@H]2CN2C(=N)NC[C@H]2CC(C)C)C[C@H]1[C@H](C)O	not satisfied
CC(C)[C@@H]1CNC(=N)N1C[C@@H]1CCCN1C[C@@H](CC1CCCCC1)N1C[C@@H](C(C)C)N(CC2CCC(C(C)(C)C)CC2)C1=N (stereo partly drawn)	satisfied
CC(C)C[C@@H]1CNC(=N)N1C[C@@H]1CCCN1C[C@@H](CC1CCCCC1)N1C[C@@H]([C@@H](C)O)N(CC23CC4CC(CC(C4)C2)C3)C1=N	satisfied

API: the following record is the query input.
Q) Reported pEC50 at or above 6? CC(C)[C@@H]1CNC(=N)N1C[C@@H]1CCCN1C[C@@H](Cc1ccccc1)N1C[C@@H](C(C)C)N(CC23CC4CC(CC(C4)C2)C3)C1=N
A) not satisfied

---

target: mMC4R (Mus musculus, UniProt P56450); experiment: cAMP based functional bioassay (CRE/β-galactosidase reporter), agonist activity at mMC4R; conditions: reported where receptor not activated to full activity
Sequence (P56450 whole entry): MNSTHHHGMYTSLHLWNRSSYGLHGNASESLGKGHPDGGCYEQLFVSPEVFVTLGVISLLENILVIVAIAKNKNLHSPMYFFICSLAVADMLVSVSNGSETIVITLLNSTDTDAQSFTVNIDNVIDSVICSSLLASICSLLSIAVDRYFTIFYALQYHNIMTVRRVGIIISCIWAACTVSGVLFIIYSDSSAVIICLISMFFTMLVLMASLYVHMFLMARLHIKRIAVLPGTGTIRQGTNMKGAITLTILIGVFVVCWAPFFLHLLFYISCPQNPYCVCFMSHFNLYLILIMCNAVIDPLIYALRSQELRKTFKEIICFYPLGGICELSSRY
quantityKind: mMC4R Activity @ 10 μM (class)

compound	quantityKind	readoutValue
CCC[C@@H]1CN([C@H](CC2CCCCC2)CN2CCC[C@H]2CN2C(=N)NC[C@H]2CC(C)C)C(=N)N1CC12CC3CC(CC(C3)C1)C2 [TPI 2509-7]	mMC4R Activity @ 10 μM (class)	A (A: <50%)
CC(C)C[C@@H]1CNC(=N)N1C[C@@H]1CCCN1C[C@@H](CC1CCCCC1)N1C[C@@H](C(C)C)N(CC23CC4CC(CC(C4)C2)C3)C1=N [TPI 2509-10]	mMC4R Activity @ 10 μM (class)	A (A: <50%)

---

molecular target: mMC3R (Mus musculus); test: cAMP based functional bioassay (CRE/β-galactosidase reporter), agonist activity at mMC3R; conditions: reported where receptor not activated to full activity
quantityKind: mMC3R Activity @ 10 μM (class)

Solved entries:
compound	systemName	quantityKind	readoutValue
CC(C)C[C@@H]1CNC(=N)N1C[C@@H]1CCCN1C[C@@H](CC1CCCCC1)N1C[C@@H](C(C)C)N(CC2CCC(C(C)(C)C)CC2)C1=N (stereo partly shown)	mMC3R (Mus musculus)	mMC3R Activity @ 10 μM (class)	B (B: >51%)
CC(C)C[C@@H]1CNC(=N)N1C[C@@H]1CCCN1C[C@@H](Cc1ccccc1)N1C[C@@H](C(C)C)N(CC23CC4CC(CC(C4)C2)C3)C1=N	mMC3R (Mus musculus)	mMC3R Activity @ 10 μM (class)	B (B: >51%)
CC(C)CCCN1C(=N)N([C@H](Cc2ccccc2)CN2CCC[C@H]2CN2C(=N)NC[C@H]2CC(C)C)C[C@H]1C(C)C	mMC3R (Mus musculus)	mMC3R Activity @ 10 μM (class)	A (A: <50%)
CCC[C@@H]1CN([C@H](CC2CCCCC2)CN2CCC[C@H]2CN2C(=N)NC[C@H]2C(C)C)C(=N)N1CCCC(C)C	mMC3R (Mus musculus)	mMC3R Activity @ 10 μM (class)	B (B: >51%)
CC(C)C[C@@H]1CNC(=N)N1C[C@@H]1CCCN1C[C@@H](CC1CCCCC1)N1C[C@@H](C(C)C)N(CC23CC4CC(CC(C4)C2)C3)C1=N	mMC3R (Mus musculus)	mMC3R Activity @ 10 μM (class)	B (B: >51%)
CCC[C@@H]1CN([C@H](Cc2ccccc2)CN2CCC[C@H]2CN2C(=N)NC[C@H]2CC(C)C)C(=N)N1CC1CCC(C(C)(C)C)CC1 (stereo partly shown)	mMC3R (Mus musculus)	mMC3R Activity @ 10 μM (class)	B (B: >51%)

Q) Returns the measured mMC3R Activity @ 10 μM (class) for the input compound. Input: CCC[C@@H]1CN([C@H](Cc2ccccc2)CN2CCC[C@H]2CN2C(=N)NC[C@H]2CC(C)C)C(=N)N1CC12CC3CC(CC(C3)C1)C2
A) B (B: >51%)

Q) Look up mMC3R Activity @ 10 μM (class) for this compound: CC(C)CCCN1C(=N)N([C@H](CC2CCCCC2)CN2CCC[C@H]2CN2C(=N)NC[C@H]2CC(C)C)C[C@H]1C(C)C
A) A (A: <50%)

Q) Consider the compound shown here: CC(C)CCCN1C(=N)N([C@H](CC2CCCCC2)CN2CCC[C@H]2CN2C(=N)NC[C@H]2C(C)C)C[C@H]1C(C)C What is its recorded mMC3R Activity @ 10 μM (class)?
A) B (B: >51%)

Q) Quick one: mMC3R Activity @ 10 μM (class) for CCC[C@@H]1CN([C@H](CC2CCCCC2)CN2CCC[C@H]2CN2C(=N)NC[C@H]2CC(C)C)C(=N)N1CC1CCC(C(C)(C)C)CC1 (stereo partly shown) ?
A) B (B: >51%)
